- Experimental system: oncoprotein E7 from Human Papilloma Virus type 16 as GST fusion protein (E7-GST), phosphorylated by CK2 enzyme (Human papillomavirus type 16)
- Sequence (P03129 whole entry, looked up, the tested form may be a part): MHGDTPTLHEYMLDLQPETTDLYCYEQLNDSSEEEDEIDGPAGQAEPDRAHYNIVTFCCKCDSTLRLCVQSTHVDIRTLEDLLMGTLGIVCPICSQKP
- Format: biochemical
- Condition: read-out: Inhibitory concentration 50 (IC50)
Experimental readout: pIC50
One number for each entry, as −log10 of the molar value.

Guide cases for pIC50, answers given:
| Compound | Experimental readout | Reported measurement |
| --- | --- | --- |
| C/C(COc1ccccc1)=N/NC(N)=S | pIC50 | 7.48 |
| O=C(O)c1cc(O)nc(SCc2ccc(Cl)cc2Cl)n1 | pIC50 | 7.54 |

Batch request: pIC50 per item, same order as input.
1. O=C(NNCCO)c1ccncc1
2. O=C(NCO)NC1NC(=O)NC1=O (stereo not drawn)
3. CC1=C/C(=N\NC(N)=O)CC(C)(C)C1
4. NNC(=O)CC(O)C(=O)NN (stereo not drawn)

Reply:
1. 7.49
2. 7.51
3. 7.59
4. 7.55
